B1: CPEB3 Ribozyme (parent)
chain: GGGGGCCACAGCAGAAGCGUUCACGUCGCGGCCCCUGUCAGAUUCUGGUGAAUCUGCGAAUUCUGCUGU

Variants of: B1
protocol notes: self-cleavage, relative activity (ratio to wild type); higher = more cleavage; co-transcriptional
observable: self-cleavage
# print the numeric value only

[Q] Please give measured self-cleavage of the following entry: U44C U67A
[A] 0.954

[Q] Identify the reported self-cleavage for the following entry. G4C U21C
[A] 0.215

[Q] // fetch self-cleavage given entry A23U C63U
[A] 1.01

[Q] Item A16C G19C : provide self-cleavage
[A] 0.0843

[Q] Return self-cleavage for the following variant: G4U A59C
[A] 0.146

[Q] Please look at this variant and report its self-cleavage: A8G C24G
[A] 0.15

[Q] Output self-cleavage of G1U C12G
[A] 0.106

[Q] Please indicate self-cleavage recorded for G5A A59C
[A] 0.259

[Q] Please indicate self-cleavage recorded for U46A C57U
[A] 0.309

[Q] # return recorded self-cleavage for entry G41A U61G
[A] 0.331

[Q] Supply recorded self-cleavage for A13G G30C here.
[A] 0.711

[Q] Tell me its self-cleavage given G4U U55A as the entry.
[A] 0.496

[Q] Note self-cleavage for the variant shown: A51C A60U
[A] 0.468

[Q] Give me measured self-cleavage, please, for this variant: G14U U21A
[A] 0.733

[Q] Entry C29U A40G needs its self-cleavage filled in; supply it.
[A] 0.288

[Q] For the variant U49C U53A , report self-cleavage.
[A] 0.962

[Q] Item A16U C35U : provide self-cleavage
[A] 0.768

[Q] Tell me measured self-cleavage for A23C G65A please.
[A] 0.764

[Q] Query self-cleavage for A13U G68A
[A] 0.903

[Q] Hello, please tell me recorded self-cleavage for this one: C33U A59U
[A] 0.8

[Q] Find the measured self-cleavage of U53G and report it.
[A] 0.927

[Q] Supply recorded self-cleavage for A8C G11U here.
[A] 0.768

[Q] Please give the documented self-cleavage of G37C U61A
[A] 0.201

[Q] Dear colleague, please send me the reported self-cleavage for A52G U64A when you can.
[A] 0.911

[Q] Annotate the variant G4U C63G with its measured self-cleavage.
[A] 0.292

[Q] Identify self-cleavage associated with the variant G2C A60U
[A] 0.0243

[Q] Give the reported value of self-cleavage for this record: G25A G30A
[A] 0.155

[Q] Look up self-cleavage of G11C G65U and report it.
[A] 0.53

[Q] Report self-cleavage for C45A G48C
[A] 1.01

[Q] For A51U U53C , write its self-cleavage.
[A] 0.863

[Q] Input G50C U55A , output reported self-cleavage.
[A] 0.794

[Q] Consider the variant A52C U61G . State its measured self-cleavage.
[A] 0.67

[Q] Given the variant C7A A15G , write its reported self-cleavage.
[A] 0.457

[Q] Indicate the recorded self-cleavage value for this variant: G41A U49C
[A] 0.825

[Q] Give the reported value of self-cleavage for this record: U55C U67C
[A] 0.912

[Q] Please give measured self-cleavage of the following entry: U46A U67G
[A] 1.03

[Q] Look up and state reported self-cleavage for C35U U44A
[A] 0.889

[Q] Please report self-cleavage for the following variant: U20G C57U
[A] 0.143

[Q] # return recorded self-cleavage for entry A40C C45G
[A] 0.531

[Q] Indicate the recorded self-cleavage value for this variant: C12A U67C
[A] 0.812

[Q] Give self-cleavage for the following variant: G50A C66U
[A] 1.01

[Q] Respond only with self-cleavage recorded for G5U U55A
[A] 0.0876

[Q] Recall and state the measured self-cleavage for C35U G37A .
[A] 0.253

[Q] Give the measured self-cleavage for C6A
[A] 0.705

[Q] Identify measured self-cleavage associated with G19C U67A
[A] 0.0765

[Q] Read off the recorded self-cleavage for G47C A51C
[A] 1.04
